- Test system: SR leukemia
- Test details: NCI-60 one-dose screen, 48 h
- Measurement conditions: 10 µM unless noted
Compounds without any hit were thinned out: in the full panel of roughly 83,000, 20% have a hit. The source made the active and inactive calls. The calls were made as follows: active = growth percent below 10; inactive = the rest.
Classes used: active, inactive

{"columns": ["Compound", "Label value"],
 "data": [
  ["C[C@H]1C=C(C[C@@H](O)CCCCCCCCCC[C@@H](O)[C@H]2CCC(=O)O2)C(=O)O1", "inactive"],
  ["CCC1S/C(=N\\N=C(/C)c2cc3ccccc3o2)N(c2ccccc2)C1=O (stereo not given)", "inactive"],
  ["COc1ccc(/C=N/C2=NNC(C)(c3ccccc3O)N2C(Cc2c[nH]c3ccccc23)C(=O)O)cc1 (stereo not given)", "active"],
  ["O=C(CSc1nnc(-c2cc3c([nH]c4ccccc43)c(-c3cccc(O)c3)n2)n1-c1ccccc1)c1ccccc1", "inactive"],
  ["COc1ccc(Cl)cc1NC(=O)c1cc2c([nH]1)-c1nc(NC(=O)C(C)C)sc1CC2", "inactive"],
  ["CCCCCCCCCCCCCCCC(=O)NS(=O)(=O)OC[C@H]1O[C@@H](n2cnc3c(N)ncnc32)[C@H](O)[C@@H]1O", "active"],
  ["O=S(c1ccccc1)c1ccc2nnnn2n1 (stereo not given)", "inactive"],
  ["COc1ccc(C(=O)NC(=O)Nc2ccc3c(c2)NC(=O)/C3=C\\c2[nH]c(C)c(C(=O)O)c2C)cc1", "inactive"],
  ["Oc1ccc(Cl)cc1Sc1cc(Cl)ccc1O", "inactive"],
  ["O=C(Nc1ccc(-n2ccc3c(NC(=O)c4ccccc4)nccc32)cc1)Nc1cccc(C(F)(F)F)c1", "inactive"],
  ["COc1ccccc1S(=O)(=O)Nc1ccc2c3c(cc(-c4cnn(C)c4)nc13)C(=O)N2C", "inactive"],
  ["C=C1c2c(Cl)ccc(O)c2C(O)=C2C(=O)[C@]3(O)C(O)=C(C(N)=O)C(=O)[C@@H](N(C)C)[C@@H]3[C@@H](O)[C@H]12", "active"],
  ["COc1ccc(/C(=C/c2cc(OC)c(OC)c(OC)c2)[N+](=O)[O-])cc1", "active"],
  ["COc1ccc(-n2c(-c3ccc(NC(=O)CCCl)cc3)nnc2-c2cc(OC)c(OC)c(OC)c2)cc1", "active"],
  ["COC(=O)c1ccc2c(c1)Oc1ccc(Cl)cc1-c1cc(C)nn1-2", "inactive"],
  ["CCN(CC)CCC(C(=O)O)(c1ccccc1)c1ccccc1", "inactive"],
  ["COc1cc(NS(C)(=O)=O)ccc1Cc1c2ccccc2nc2ccccc12", "active"],
  ["COc1ccc(/C=C/C(=O)/C=C(/C=C/c2ccc(OC)c(OC)c2OC)OB(F)F)c(OC)c1OC", "active"],
  ["Cc1[nH]c2ccc(F)cc2c1CCNC(=O)C1CCN(C(=O)c2ccc(-c3ccccc3)cc2)CC1", "active"],
  ["CCNc1cc(S(=O)(=O)O)ccc1C", "inactive"],
  ["CCc1cccc(C)c1NC(=O)c1sc2nc3c(cc2c1N)CCCCC3", "inactive"],
  ["COc1cc(NC(C)CCCN2C(=O)c3ccccc3C2=O)c2ncccc2c1OC (stereo not given)", "inactive"],
  ["CCN(CC)CCNCC(O)Cc1ccc(OC)cc1 (stereo not given)", "inactive"],
  ["Cc1cc(SCc2ccc(Cl)cc2Cl)nc(SCc2ccc(Cl)cc2Cl)n1", "inactive"],
  ["CC(C)CNCC(O)COc1ccc(C(C)(C)c2ccc(OCC(O)CNCC(C)C)cc2)cc1 (stereo not given)", "active"],
  ["CCCCOc1nc2ccc(Cl)cc2cc1/C=C/C(=O)/C=C/c1ccc(OC)cc1", "inactive"],
  ["COc1cc(/C=C2/Oc3cc4occc4c(OC)c3C2=O)ccc1OCC(=O)Nc1ccncc1", "inactive"],
  ["Cc1ccc2nc(-c3ccc(-n4on4-c4ccc(/C=C/c5ccc(-n6on6-c6ccc(-c7nc8ccc(C)cc8s7)cc6)cc5S(=O)(=O)O)c(S(=O)(=O)O)c4)cc3)sc2c1", "inactive"],
  ["O=[N+]([O-])c1ccccc1NC1c2ccccc2Oc2ccccc21", "active"],
  ["O=C(/C=C/c1ccccc1)Oc1ccc(/C=C/c2cc(OC(=O)/C=C/c3ccccc3)cc(OC(=O)/C=C/c3ccccc3)c2)cc1", "inactive"]
]}
